Biological target: T1, IGF-1R, insulin-like growth factor 1 receptor (human, UniProt P08069 31-1367)
T1 construct: On IGF-IR transfected 3T3 cells (hIGF-1R-3T3) in cell ELISA, or from their extracts in pull-downs (detected through the beta subunit); The entry is the precursor; the processing into alpha and beta subunits is not described; also called IGF-IR; IGF-1 receptor
T1 sequence (P08069 31-1367 limits assumed): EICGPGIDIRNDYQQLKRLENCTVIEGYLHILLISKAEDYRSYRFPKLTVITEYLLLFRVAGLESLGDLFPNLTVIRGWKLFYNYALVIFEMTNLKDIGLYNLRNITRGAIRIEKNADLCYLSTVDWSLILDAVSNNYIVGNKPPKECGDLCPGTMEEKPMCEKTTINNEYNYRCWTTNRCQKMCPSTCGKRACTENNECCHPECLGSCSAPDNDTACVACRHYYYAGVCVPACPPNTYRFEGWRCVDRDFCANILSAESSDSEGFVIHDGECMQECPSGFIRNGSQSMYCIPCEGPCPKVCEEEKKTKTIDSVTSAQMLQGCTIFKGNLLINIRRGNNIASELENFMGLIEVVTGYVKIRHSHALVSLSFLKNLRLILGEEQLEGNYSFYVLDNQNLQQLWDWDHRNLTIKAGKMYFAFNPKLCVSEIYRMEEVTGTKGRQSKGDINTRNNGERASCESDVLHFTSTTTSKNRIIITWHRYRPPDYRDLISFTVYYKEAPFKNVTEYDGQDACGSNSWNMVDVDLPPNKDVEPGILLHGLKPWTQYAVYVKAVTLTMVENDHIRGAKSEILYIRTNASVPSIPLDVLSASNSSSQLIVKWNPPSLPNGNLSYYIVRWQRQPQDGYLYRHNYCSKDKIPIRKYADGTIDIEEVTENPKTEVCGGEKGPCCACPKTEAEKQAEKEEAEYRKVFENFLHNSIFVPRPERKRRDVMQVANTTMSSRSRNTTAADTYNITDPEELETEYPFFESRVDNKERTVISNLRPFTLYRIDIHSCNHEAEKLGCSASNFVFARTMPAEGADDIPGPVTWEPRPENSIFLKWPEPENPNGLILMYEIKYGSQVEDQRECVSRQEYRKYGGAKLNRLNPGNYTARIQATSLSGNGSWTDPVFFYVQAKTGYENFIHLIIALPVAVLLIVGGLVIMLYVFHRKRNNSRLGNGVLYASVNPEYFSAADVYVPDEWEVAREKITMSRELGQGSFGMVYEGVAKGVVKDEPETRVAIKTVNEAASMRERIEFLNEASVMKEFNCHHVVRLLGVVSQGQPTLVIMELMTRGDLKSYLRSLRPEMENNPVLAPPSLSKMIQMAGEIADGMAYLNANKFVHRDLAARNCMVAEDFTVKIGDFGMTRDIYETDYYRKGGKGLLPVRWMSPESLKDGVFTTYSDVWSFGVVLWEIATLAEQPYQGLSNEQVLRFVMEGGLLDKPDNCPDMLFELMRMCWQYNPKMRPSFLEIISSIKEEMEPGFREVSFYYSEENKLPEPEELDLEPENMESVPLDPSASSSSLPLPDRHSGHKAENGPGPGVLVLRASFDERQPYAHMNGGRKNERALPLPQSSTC
Test: saturation binding to IGF-IR transfected 3T3 cells, herstatin ELISA, nonlinear regression
recorded_endpoint: Kd

Input: What does the data say about its Kd? Entry: RBD Int8 polypeptide (intron 8-encoded receptor binding domain of herstatin, expressed as a bacterial peptide) (Purified from BL-21 bacteria; also called Int8 RBD polypeptide; Int8 peptide; not shown: pET 30 vector-encoded tags (His tag used for nickel purification, S-protein tag used for immobilisation)) GTHSLPPRPAAVPVPLRMQPGPAHPVLSFLRPSWDLVSAFYSLPLAPLSPTSVPISPVSVGRGPDPDAHVAVDLSRYEG
Output: 40 to 150 nM
